# System: Mycobacterium tuberculosis
# experiment: Cornell M. t heat shock assay; also: in the data most compounds retested in dose-response had high values
# Format: functional, organism-based
# Parameters: dose or concentration left out as unconfirmed
Among all 69,000 compounds or so, about 950 (1.4%) showed an effect of 50% or more. The list comes from a sample in which strong results are over-represented; it also holds close analogues and randomly drawn compounds.
The reader will find reported Percent Effect values listed item by item below.
Give the value in % but do not write % after it.

In [3]: df
Out[3]:
                                   compound  measured_result
0          Cc1cnn(CCNCc2csc(-c3ccccc3)n2)c1            104.4
1  O=C(CCC(=O)N1CCC(c2noc3cc(F)ccc23)CC1)NC1CC1            83.45
2  CN(C)C(=O)N1CCC[C@]2(C(=O)N(C)C)CN(c3ccccn3)C[C@@H]2C1.O=C(O)C(F)(F)F           -29.23
3  O=C(CCN1CCC(C(=O)c2cc(F)ccc2F)CC1)NC1CC1           -9.281
4  CCCNC(=O)CCC(=O)N1CCC(c2noc3cc(F)ccc23)CC1            9.612

Next:
Reported Percent Effect ( Cc1cnn(CCNCc2csc(-c3cccs3)n2)c1 ) = 25.75

###

# reported Percent Effect; entries follow
# Test system: Mycobacterium tuberculosis
# experiment: Cornell M. t heat shock assay; also: in the data most compounds retested in dose-response had high values
# Assay type: functional, organism-based
# Set-up: dose or concentration left out as unconfirmed
About 950 (1.4%) of roughly 69,000 compounds showed an effect of 50% or more. For the sample, strong results were picked, then their nearest neighbours and some compounds at random.
Give the value in % but do not write % after it.

>>> df
                                   compound  unit_label  measured_result
0  CS(=O)(=O)N1CCC2(CC1)COC(COc1ccccn1)C2.O=C(O)C(F)(F)F (stereo not drawn)           %           -12.81
1   CC(C)Cn1cncc1CNC(=O)c1cccc(CC2CCNCC2)c1           %           -17.32
2  Fc1cnc(N2CCO[C@H]3[C@H](OCCN4CCCC4)CC[C@@H]32)nc1.O=C(O)C(F)(F)F           %           -1.217
3  O=S(=O)(Cc1ccccc1)NCCNc1ccc(-n2cccc2)nn1           %           -9.655
4  c1ccc(-c2cc(CN3C[C@H]4CC[C@H]3C4)on2)cc1           %            7.341

The compound listed as Fc1ccc(CN2CCCC3(CCN(Cc4ncc[nH]4)C3)C2)cc1F (stereo not drawn) has a reported Percent Effect of 0.7553

So, Cc1c[nH]c(CN2CCC3(CCCN(Cc4ccc(F)c(F)c4)C3)C2)n1 (stereo not drawn) ? Its Percent Effect was 58.72

The recorded Percent Effect for O=S(=O)(NCCNc1ccc(-n2cccc2)nn1)c1ccccc1 is 100.9

Per the records, this compound ( COCCNC(=O)C(C)N1CCN(C)CC1.O=C(O)C(=O)O (stereo not drawn) ) has Percent Effect equal to 1.358

Looking up O=S(=O)(NCCNc1cc(-n2cccn2)ncn1)c1cccs1 , I see its Percent Effect listed as -0.2009

Short answer for COc1cc(C(=O)Nc2nc(C)no2)ccc1C : Percent Effect was 106.9

Entry CN(C)C(=O)c1ccc2c(c1)N(C)C(CC(=O)NCc1ccno1)CO2 (stereo not drawn) ; Percent Effect = 79.27

Entry Cc1nn(C)cc1S(=O)(=O)NCC(c1ccccc1)N1CCCCCC1.Cl (stereo not drawn) — recorded Percent Effect = -15.55

Recorded result, COc1ccc(CN2C[C@@H]3OCCN(CC4CCCO4)[C@@H]3C2)cc1.O=C(O)C(F)(F)F.O=C(O)C(F)(F)F (stereo partly drawn) , Percent Effect: 2.354

The recorded Percent Effect for O=C(C1CC(F)(F)C1)N1C[C@@H]2CN(CC3CC3)CCO[C@@H]2C1.O=C(O)C(F)(F)F is -22.01

Lab note: CN(C)C(=O)C1CCN(C2CCN(CC3CCC3)CC2)CC1.O=C(O)C(F)(F)F.O=C(O)C(F)(F)F gave Percent Effect of 5.992

Measured Percent Effect, CCOCC1CN(Cc2cccnc2)Cc2nn(C)cc21.O=C(O)C(F)(F)F.O=C(O)C(F)(F)F (stereo not drawn) : -34.52

Data point: CN1CCCN(C(=O)c2ccnn2-c2ccc3ccccn23)CC1.O=C(O)C(F)(F)F ; Percent Effect = -45.73

###

# Test system: Mycobacterium tuberculosis
# experiment: Cornell M. t heat shock assay; also: in the data most compounds retested in dose-response had high values
# Type: functional, organism-based
# Set-up: dose or concentration left out as unconfirmed
The whole screen tested about 69,000 compounds, of which about 950 (1.4%) showed an effect of 50% or more. The sample holds strong results, similar compounds and a random draw of the others, so the mix is not that of the screen.
# class assignment by measured Percent Effect: 0 (below -10%), 1 (-10% to below 20%), 2 (20% or more)

Solved entries:
>>> print(df.to_string())
                                   molecule                 measured_on  label
0  O=C(N[C@@H]1CN(CC2CC2)[C@@H]2CCCO[C@@H]21)c1cscn1.O=C(O)C(F)(F)F  Mycobacterium tuberculosis      2
1  O=C(O)C(F)(F)F.O=C(c1cc(C2CC2)on1)N1C[C@@H]2COC[C@]2(COc2cccnc2)C1  Mycobacterium tuberculosis      2
2       Cc1nc(CCN)cc(N2CCOc3ccc(Cl)cc3C2)n1  Mycobacterium tuberculosis      2
3  COCC1CN(c2ccncn2)Cc2cnn(CC3CCCC3)c21.O=C(O)C(F)(F)F.O=C(O)C(F)(F)F (stereo unspecified)  Mycobacterium tuberculosis      1
4  COC[C@H]1CCCN1c1nccc(-c2cnn(-c3ccccc3C)c2)n1  Mycobacterium tuberculosis      2
5  Cc1ccc(-c2cc(-c3c(C)nn(CCO)c3C)c(C#N)c(N)n2)cc1  Mycobacterium tuberculosis      1
6   O=C([C@H]1CCCO1)N1CCc2ncnc(NC3CC3)c2CC1  Mycobacterium tuberculosis      2
7  O=C(O)C(F)(F)F.O=C(O)C(F)(F)F.O=C1CC[C@H]2[C@H](CCN2Cc2ccccn2)N1CC1CCOCC1  Mycobacterium tuberculosis      0

State the band of Cc1nc(-c2ccc(F)c(F)c2)cc(C2CCNCC2)n1.Cl
1

Band for the recorded Percent Effect of O=C(O)C(F)(F)F.O=C(O)C(F)(F)F.OCCN1CC2(CCN(CC3CC3)CC2)c2ccccc21 ?
0

Any idea which band Cc1cnn(CC2CCCN2Cc2noc(-c3ccccc3)n2)c1 (stereo unspecified) is in?
1

Could you tell me which band Cn1cc(CN2CCC[C@]3(C[C@H](Oc4ncccc4F)CO3)C2)cn1.O=C(O)C(F)(F)F.O=C(O)C(F)(F)F belongs to?
1

Which of the defined bands does the recorded Percent Effect of CC(C)c1n[nH]c(C(=O)Nc2cc[nH]n2)c1Br sit within?
1

Form: Item = Nc1nc(CN2CCCCC2Cn2cncn2)nc2ccccc12 (stereo unspecified) ; Class = ?
0

# classify by Percent Effect band: O=C(O)C(F)(F)F.O=C(O)C(F)(F)F.O=C1[C@H]2CN(Cc3cccs3)C[C@H]2CN1CCN1CCCC1
0

###

# Test system: Mycobacterium tuberculosis
# experiment: Cornell M. t heat shock assay; also: in the data most compounds retested in dose-response had high values
# Type: functional, organism-based
# Parameters: dose or concentration left out as unconfirmed
In all, about 69,000 compounds went through this assay and about 950 (1.4%) showed an effect of 50% or more. This is one part of a sample in which strong results are shown more often than they occur.
attribute_measured: Percent Effect (%)
Hi! Could you send only the number? It should be in %, unit omitted.

In [3]: df
Out[3]:
                                   compound  measured_result
0  OCC(O)CN1CCc2onc(-c3ccc(C(F)(F)F)cc3)c2C1 (stereo not given)            97.28

Lab note: measured Percent Effect of COCC(C)N1CCc2onc(-c3ccc(C(F)(F)F)cc3)c2C1 (stereo not given) was 16.68

Lab note: COCCN1CCC(c2nc3ccc(NC4CCC4)cn3n2)CC1.O=C(O)C(F)(F)F gave Percent Effect of 43.84

// C[C@]1(O)CN(Cc2ncc[nH]2)CC[C@@H]1Oc1cccc(F)c1 : Percent Effect value = -7.197

Lab note: Cc1cc(C(=O)N2CCN(c3nc4c(C(C)C)cccc4s3)CC2)no1 gave Percent Effect of 88.51

The measured Percent Effect associated with CCN(C)c1ncnc2c1CCN(Cc1csc(C)n1)CC2.O=C(O)C(F)(F)F.O=C(O)C(F)(F)F reads 2.134

compound CCC(=O)N1CCc2[nH]cnc2C12CCN(C(=O)CCS(C)(=O)=O)CC2 , Percent Effect observed: 77.54

// sample O=C(NCCCN1CCCC1=O)c1ccc(-n2ccc3ccccc32)s1 , its Percent Effect was 22.37
